Please go through the items and note down their IC50.
Note: a bare number is incomplete; add the unit.

The value of IC50 recorded for `CCCCN1CCC(CCC(=O)c2cc(Br)c(N)cc2OC)CC1` when tested on human acetylcholinesterase (Homo sapiens (Human)) reads 0.445 µM

Recorded IC50 for `COc1cc(N)c(Cl)cc1C(=O)NCC1CCN(CC2CCCCC2)CC1` on human acetylcholinesterase (Homo sapiens (Human)) was 3.73 µM

---

Assign % Propidium Displacement to each entry below.
molecular target: peripheral site of eeAChE (Electrophorus electricus (Electric eel) (Gymnotus electricus)); type: binding; settings: 10^-5 M solution of compound, eeAChE, propidium diiodide fluorescence
Sequence (O42275 whole entry, looked up): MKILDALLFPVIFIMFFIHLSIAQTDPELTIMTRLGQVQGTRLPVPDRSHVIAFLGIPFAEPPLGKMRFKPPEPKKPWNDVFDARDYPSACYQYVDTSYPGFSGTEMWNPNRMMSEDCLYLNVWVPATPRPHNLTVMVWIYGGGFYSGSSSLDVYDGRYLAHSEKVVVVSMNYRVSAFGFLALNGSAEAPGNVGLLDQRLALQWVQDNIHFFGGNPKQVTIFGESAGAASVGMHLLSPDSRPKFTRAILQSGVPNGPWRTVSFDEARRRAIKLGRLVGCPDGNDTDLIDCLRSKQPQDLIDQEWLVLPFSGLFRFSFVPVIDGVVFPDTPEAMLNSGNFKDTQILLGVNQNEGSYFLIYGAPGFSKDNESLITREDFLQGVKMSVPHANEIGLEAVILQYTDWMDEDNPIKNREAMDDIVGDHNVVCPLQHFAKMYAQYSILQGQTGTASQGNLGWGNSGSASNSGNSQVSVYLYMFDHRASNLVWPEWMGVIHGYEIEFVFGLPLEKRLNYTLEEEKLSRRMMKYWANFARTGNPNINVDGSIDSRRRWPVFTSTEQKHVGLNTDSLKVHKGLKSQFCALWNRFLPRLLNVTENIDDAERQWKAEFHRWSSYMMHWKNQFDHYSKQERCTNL
Quick reminder: number only, in %, skip the unit.

Looking up Nc1cc(OCCF)c(C(=O)CCC2CCN(CC3CCCCC3)CC2)cc1Cl [Compound 23] , I found its % Propidium Displacement recorded as 22

Given item COc1cc(N)c(Cl)cc1C(=O)CCC1CCN(CC2CCCCC2)CC1 [Compound 9] , the value recorded as its % Propidium Displacement is 22

Quick note, % Propidium Displacement for COc1cc(N)c(Cl)cc1C(=O)CCC1CCN(CC2CCCC2)CC1 [Compound 8] landed at 20

Lab note: measured % Propidium Displacement of COc1cc(N)c(F)cc1C(=O)CCC1CCN(CC2CCCCC2)CC1 [Compound 5] was 22

Input COc1cc(N)c(Cl)cc1C(=O)CCC1CCN(CC2CCCCCC2)CC1 [Compound 12] . Output % Propidium Displacement: 20

---

target: 5-HT4 receptors (Cavia porcellus (Guinea pig), UniProt O70528); assay: Affinity as regards 5-HT4 receptors: competition against [3H]-GR113808 on striatal membranes; type: binding; settings: 0.1 nM [3H]-GR113808, guinea pig striatal membranes; read-out: Ki
Sequence (O70528 whole entry): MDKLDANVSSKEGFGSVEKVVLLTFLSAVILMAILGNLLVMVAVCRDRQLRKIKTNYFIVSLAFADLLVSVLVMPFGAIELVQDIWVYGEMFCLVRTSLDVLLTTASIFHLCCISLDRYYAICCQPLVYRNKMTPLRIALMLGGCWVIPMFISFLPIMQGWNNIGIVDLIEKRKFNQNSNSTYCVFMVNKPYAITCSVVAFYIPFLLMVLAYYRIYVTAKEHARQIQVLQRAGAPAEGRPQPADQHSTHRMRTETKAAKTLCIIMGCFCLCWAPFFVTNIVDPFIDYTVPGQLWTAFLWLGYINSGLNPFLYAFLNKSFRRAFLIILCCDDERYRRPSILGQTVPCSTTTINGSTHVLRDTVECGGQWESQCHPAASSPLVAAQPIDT
endpoint: pKi
Reminder that pKi means the negative base-10 logarithm of the concentration expressed in mol/L.

Documented pKi of COc1cc(N)c(Cl)cc1C(=O)NCC1CCN(CC2CCCCC2)CC1 [Compound 17] : 8.64

---

biological target: 5-HT4 receptor (Homo sapiens (Human)); test: Agonist nature as regards the 5-HT4 receptor: accumulation of intracellular cyclic AMP in stably transfected CHO cells; format: cell-based; settings: percentage of agonist effect in relation to serotonin
Sequence (Q13639 whole entry): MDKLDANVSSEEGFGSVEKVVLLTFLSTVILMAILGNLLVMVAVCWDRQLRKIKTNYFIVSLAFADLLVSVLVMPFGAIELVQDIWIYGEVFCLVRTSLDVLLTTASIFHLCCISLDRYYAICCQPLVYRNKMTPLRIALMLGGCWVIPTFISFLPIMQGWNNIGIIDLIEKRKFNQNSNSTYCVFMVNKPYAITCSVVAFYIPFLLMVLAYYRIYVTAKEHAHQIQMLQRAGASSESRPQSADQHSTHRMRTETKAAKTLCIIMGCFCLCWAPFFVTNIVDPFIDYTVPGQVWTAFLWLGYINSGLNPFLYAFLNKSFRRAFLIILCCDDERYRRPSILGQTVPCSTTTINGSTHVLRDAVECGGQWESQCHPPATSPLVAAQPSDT
Param label: returns fulfilled when Agonistic effect % < 20%, returns not fulfilled otherwise, including exact equality.

Ask: Given the entry `COc1cc(N)c(Cl)cc1C(=O)CCC1CCN(CC2CCCCC2)CC1` , would its reported Agonistic effect % be below 20%?
Result: not fulfilled

Ask: Is 20% strictly greater than the compound's reported Agonistic effect %? compound: COCCCN1CCC(NC(=O)c2cc(Cl)c(N)c3c2OCC3)CC1 [prucalopride, reference compound]
Result: not fulfilled

Ask: Please indicate whether the reported Agonistic effect % of `COc1cc(N)c(F)cc1C(=O)CCC1CCN(CC2CCCCC2)CC1` is strictly below 20%.
Result: fulfilled

Ask: Given `COc1cc(N)c(Cl)cc1C(=O)CCC1CCN(CC2CCCC2)CC1` , is recorded Agonistic effect % strictly lower than 20%?
Result: fulfilled

Ask: Item `COc1cc(N)c(Cl)cc1C(=O)CCC1CCN(CC2CCCCCC2)CC1` : Agonistic effect % beneath 20%, strictly?
Result: not fulfilled

Taken from patent US9663465B2.
